Molecular target: T1, VEGF(8-109) (UniProt P15692 214-315)
T1 construct: range 8-109; Covalently coupled to the BIACORE chip (EDC/NHS); also called vascular endothelial growth factor
T1 sequence (looked up): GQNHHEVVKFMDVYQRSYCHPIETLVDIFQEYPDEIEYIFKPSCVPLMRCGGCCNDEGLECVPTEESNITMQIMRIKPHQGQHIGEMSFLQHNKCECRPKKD
Assay: SPR (BIACORE-2000); reference (wt) is Y0192
EXPERIMENTAL READOUT: Kd(wt)/Kd(mut) (ratio)

>>> reported_value("Y0241-6 Fab (Fab, V domains shown, Clone from library YC-86, made on the Y0192 template; The text names point mutations only at T28 and F29; The printed stretch ends in GIN, so residue 34 may also differ from the parent; this change is not applied here) VH: EVQLVESGGGLVQPGGSLRLSCAASGYDYTNYGINWVRQAPGKGLEWVGWINTYTGEPTYAADFKRRFTFSLDTSKSTAYLQMNSLRAEDTAVYYCAKYPHYYGSSHWYFDVWGQGTL VL: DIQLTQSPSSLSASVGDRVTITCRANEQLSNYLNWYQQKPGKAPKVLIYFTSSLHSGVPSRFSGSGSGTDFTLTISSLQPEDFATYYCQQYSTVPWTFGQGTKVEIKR")
1.1
>>> reported_value("Y0239-12 Fab (Fab, V domains shown) VH: EVQLVESGGGLVQPGGSLRLSCAASGYTFTNYGMNWVRQAPGKGLEWVGWINTYTGEPTYAADFKRRFTFSLDTSKSTAYLQMNSLRAEDTAVYYCAKYPHYYAHEKKSHWYFDVWGQGTL VL: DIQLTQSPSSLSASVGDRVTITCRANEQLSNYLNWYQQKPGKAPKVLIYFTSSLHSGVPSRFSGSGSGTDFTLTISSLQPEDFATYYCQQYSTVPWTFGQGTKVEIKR")
4.8
>>> reported_value("Y0239-2 Fab (Fab, V domains shown) VH: EVQLVESGGGLVQPGGSLRLSCAASGYTFTNYGMNWVRQAPGKGLEWVGWINTYTGEPTYAADFKRRFTFSLDTSKSTAYLQMNSLRAEDTAVYYCAKYPHYYKNDKSSHWYFDVWGQGTL VL: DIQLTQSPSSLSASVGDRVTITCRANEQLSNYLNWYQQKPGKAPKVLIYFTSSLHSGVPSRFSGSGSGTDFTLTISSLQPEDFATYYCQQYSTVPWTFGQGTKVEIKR")
0.6
